Listed next: entries and their corresponding log10 of solubility kinetic.
# CONDITION DETAILS: buffer; pH 7.4; 200.0 µM
ENDPOINT: log10 of solubility kinetic (log10 of the value in µg/mL)

• CC(=O)Nc1ccc(NC(=O)Nc2cccc3ccccc23)cc1 = 0.04
• CC(C)(C)c1ccccc1NC(=S)NC1CCCC1 = 1.49
• COc1ccc(/C=C2\SC(=Nc3ccccc3OC)NC2=O)cc1 = 0.23
• COc1ccc2c(=O)c(C(=O)NCCc3ccccc3)c[nH]c2c1 = 0.72
• Cl.O=[N+]([O-])c1ccc(N2CCCNCC2)c2ncccc12 = 1.56
• Fc1ccccc1NC(=S)Nc1ccc(CN2CCOCC2)cc1 = 1.69
• Cc1ccccc1CSc1ncnc2ccccc12 = -0.52
• CCN(CC)C(=O)COc1ccc2c3c(c(=O)oc2c1)CCCC3 = 1.68
